# Measurement target: UniProtKB P06401
# Sequence (P06401 1-769 isoform P06401-2): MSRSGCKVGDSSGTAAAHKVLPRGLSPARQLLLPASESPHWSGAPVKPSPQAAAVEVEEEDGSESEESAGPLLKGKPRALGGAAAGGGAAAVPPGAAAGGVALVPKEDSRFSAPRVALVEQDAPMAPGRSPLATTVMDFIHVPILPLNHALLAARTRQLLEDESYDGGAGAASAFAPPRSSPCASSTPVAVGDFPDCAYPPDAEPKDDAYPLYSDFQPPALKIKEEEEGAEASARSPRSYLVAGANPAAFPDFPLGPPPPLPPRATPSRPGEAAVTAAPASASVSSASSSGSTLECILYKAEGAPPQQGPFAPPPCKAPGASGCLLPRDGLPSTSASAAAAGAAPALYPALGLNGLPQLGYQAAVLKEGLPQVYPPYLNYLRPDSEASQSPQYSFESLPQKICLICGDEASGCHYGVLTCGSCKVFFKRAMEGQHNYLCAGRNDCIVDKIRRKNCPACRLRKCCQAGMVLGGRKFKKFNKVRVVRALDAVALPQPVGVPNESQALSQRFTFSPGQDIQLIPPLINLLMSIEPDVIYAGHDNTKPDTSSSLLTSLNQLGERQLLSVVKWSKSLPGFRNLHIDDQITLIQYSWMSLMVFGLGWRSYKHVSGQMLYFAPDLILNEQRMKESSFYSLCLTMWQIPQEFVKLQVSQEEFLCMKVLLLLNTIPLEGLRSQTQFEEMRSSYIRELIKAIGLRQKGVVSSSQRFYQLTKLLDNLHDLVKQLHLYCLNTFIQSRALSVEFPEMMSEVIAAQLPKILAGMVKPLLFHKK
# Procedure text: Progesterone receptor-antagonistic action in stably transfected SK-N-MC cells with MMTV-LUC reporter (PR-A)
# Experimental parameters: antagonistic potency against 0.1 nmol/l promegestone, 24 hours, luciferase
Reported pIC50 values for a set of compounds
Answer as the number alone; pIC50 is minus log10 of concentration in mol/L.

As a guide, the following entries are already answered.
[
  {
    "Compound": "C[C@]12C[C@H](c3ccc(/C=C/CNC(=O)Nc4ccc(Cl)cc4)cc3)C3=C4CCC(=O)C=C4CC[C@H]3[C@@H]1CC[C@@]2(O)C(F)(F)C(F)(F)F [Example 53]",
    "Measurement target": "UniProtKB P06401",
    "pIC50": 10.00
  },
  {
    "Compound": "COc1ccc(NC(=O)NC/C=C/c2ccc([C@H]3C[C@@]4(C)[C@@H](CC[C@@]4(O)C(F)(F)C(F)(F)F)[C@@H]4CCC5=CC(=O)CCC5=C43)cc2)cc1 [Example 54]",
    "Measurement target": "UniProtKB P06401",
    "pIC50": 10.00
  },
  {
    "Compound": "C[C@]12C[C@H](c3ccc(/C=N/OCC(=O)O)cc3)C3=C4CCC(=O)C=C4CC[C@H]3[C@@H]1CC[C@@]2(O)C(F)(F)C(F)(F)F [Example 34]",
    "Measurement target": "UniProtKB P06401",
    "pIC50": 8.41
  },
  {
    "Compound": "Cc1ccc(NC(=O)NC/C=C/c2ccc([C@H]3C[C@@]4(C)[C@@H](CC[C@@]4(O)C(F)(F)C(F)(F)F)[C@@H]4CCC5=CC(=O)CCC5=C43)cc2)cc1 [Example 45]",
    "Measurement target": "UniProtKB P06401",
    "pIC50": 10.00
  }
]

Now, please, on to the next compound.
Task item: Requested read-out: pIC50. Entry: C[C@]12C[C@H](c3ccc(/C=C/C=C/C(=O)O)cc3)C3=C4CCC(=O)C=C4CC[C@H]3[C@@H]1CC[C@@]2(O)C(F)(F)C(F)(F)F [Example 17]
Reply: 10.00
